Please respond with reported yeast fitness for every item in the list.
B1: tRNA (parent)
chain: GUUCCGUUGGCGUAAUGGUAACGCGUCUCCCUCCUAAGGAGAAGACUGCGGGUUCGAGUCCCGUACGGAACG

# Variants of: B1
# Measurement description: yeast fitness relative to wild type (ratio to wild type); higher = fitter; tRNA-Arg(CCU), competitive growth, 37 C, YPD
This sample holds only a part of the variants without activity.

Below: 5 variants and their reported yeast fitness.
Residues: GUUGCGUCGGCGUAAUGGUAACGCGUCUCCCUCCUAAGGAGAAGACUGCGGGUUCGAGGCCCGUACGGAACG
Result: ≤ 0.5
//
Residues: GUUCCGUUGGCGUAAUGGUAGCGCGUCUCCCUCCCAAGGAGAAGACUGCGGGUUCGAGUCCCGUAAGGAACG
Result: ≤ 0.5
//
Residues: GUUCCGUUCGCGUAUCGGUAACGCGUCUCCCUCCUUAGGAGAAGACUGCGGGUUCGAGUCCCGUACGGAACG
Result: ≤ 0.5
//
Residues: GUUCCGUUGGCGUAAUGGUACGGCGUCUCCCUCCUAACGAGAAGACUGUGGGUUCGCGUCCCGUACGGAACG
Result: ≤ 0.5
//
Residues: GUUCAGUUGGCGUAAUGGUAACGCGUUUCCGUCCUAAGGAGACGACUGGGGCUUCGAGACCCGUACGGAACG
Result: ≤ 0.5

// for each variant below, give its yeast fitness
1. GUUCUGUAGGCGUAAUGAUAACGCGUCUCCCUCCUAAGGAGAAGACUGCGGGUUCGAGUCCCGUACGGCACG
2. GAUCCAUUGGGGUAAUGGUAACGCGUCUCCCUCCUAAGGAGAAGACUGUGGGUCCGACUCCCGUACGGAACG
3. GUUCCGUUGGCGUGAUGGUAAAGCGUGUCCCUCCUAAGGAGUAGACUGCGGGUUCGAGUCCCGUACGGAACG
4. GAUCCGUAGGCGUAAUGGUAACGUGUCUCCCUCCUAAGGAGAAGACUGCGGGUUCGAGUCCCGUACGGAACG
5. GUUCCGUUGGCGUAAUGGUAACGCGUUUCCCUCUUAAGGAGAAGACCGCGGGGUCGAGUCCCGUACGGUACG
6. GUUCCGUUGGCGUAAUGGUAACGCGUCUCCCUCCUAAGGUGAGGACUGCGGGUUCGGGUCCCGUACGGAACG
7. GUCCCGUUGGCGUAAUGGUAACGGGUCUCCUUCCUAAGGAGAAGACUGCGGGUUAGAGUCCCGUACGGAACG

≤ 0.5
≤ 0.5
≤ 0.5
≤ 0.5
≤ 0.5
≤ 0.5
≤ 0.5

I have 3 variants here; please give me yeast fitness for each one.
1. GUUCCGUUGGCGUAAUGGAAACGCGUCUCCCUCCUAAGGAGAAGACAGCGGCUUCGAGUCCCGUACGGAACG
2. GUUCCGUUGGCGUAAUGGUAACGCGUCUCCCUCCAAAGGAGAAGACUGGGGGUUCGAGUCCCGUAGGGAACG
3. GUUCCGUUGGCGUAAUGGUUACGCGUCUCCCUCCUAAGGAGAAGACUGCGGGUUGGACUCCCGUACGGAACG

≤ 0.5
≤ 0.5
≤ 0.5
